- TARGET_DESC: D614G Spike (SARS-CoV2)
READOUT_NAME: Response
// response body must contain only the number

Consider the following illustrative entries.
S1-RBD-R3-T1-F5 (Ab2-7) scFv-Fc (scFv, V domains shown) VH: QVTLKESGPTRVKPTQTLTLTCTFSGFSLSTTGVGVGWIRQPPGKALEWLALIYWNDDKRYSPSLKSRLTITKDTSKNQVVLTMTNMDPVDTATYYCARISGSGYFYPFDIWGQGTTVTVSS VL: NFMLTQPHSVSESPGKTVTISCTRSSGSIASNYVQWYQQRPGSSPTTVIYEDNQRPSGVPDRFSGSIDSSSNSASLTISGLKAEDEADYYCQSYDSSSLWVFGGGTKLTVL = 0.116
Ab_26 scFv-Fc (scFv, V domains shown) VH: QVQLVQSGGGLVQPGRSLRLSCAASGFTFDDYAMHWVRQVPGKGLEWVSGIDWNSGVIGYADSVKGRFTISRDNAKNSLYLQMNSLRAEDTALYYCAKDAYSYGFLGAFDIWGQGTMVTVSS VL: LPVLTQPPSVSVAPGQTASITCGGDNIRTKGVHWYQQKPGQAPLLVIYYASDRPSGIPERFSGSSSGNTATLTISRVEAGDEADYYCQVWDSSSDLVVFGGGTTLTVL = 0.304
S1-R3-T1-C4 (Ab_8) scFv-Fc (scFv, V domains shown) VH: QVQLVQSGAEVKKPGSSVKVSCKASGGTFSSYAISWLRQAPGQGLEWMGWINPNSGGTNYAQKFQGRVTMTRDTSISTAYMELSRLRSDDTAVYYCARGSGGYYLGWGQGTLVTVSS VL: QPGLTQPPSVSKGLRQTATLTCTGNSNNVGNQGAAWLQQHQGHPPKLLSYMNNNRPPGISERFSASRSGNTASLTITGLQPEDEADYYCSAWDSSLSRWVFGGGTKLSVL = 0.187
Ab_13 scFv-Fc (scFv, V domains shown) VH: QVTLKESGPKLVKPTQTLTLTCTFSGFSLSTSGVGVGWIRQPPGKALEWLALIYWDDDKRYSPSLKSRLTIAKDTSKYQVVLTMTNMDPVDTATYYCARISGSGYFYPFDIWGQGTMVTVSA VL: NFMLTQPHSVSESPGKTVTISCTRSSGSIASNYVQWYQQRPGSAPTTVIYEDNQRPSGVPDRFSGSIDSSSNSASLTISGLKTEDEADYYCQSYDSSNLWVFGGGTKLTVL = 0.107
Ab_19 scFv-Fc (scFv, V domains shown) VH: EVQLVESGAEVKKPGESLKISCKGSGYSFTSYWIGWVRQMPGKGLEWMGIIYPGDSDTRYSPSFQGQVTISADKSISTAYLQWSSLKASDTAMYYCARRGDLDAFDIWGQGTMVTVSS VL: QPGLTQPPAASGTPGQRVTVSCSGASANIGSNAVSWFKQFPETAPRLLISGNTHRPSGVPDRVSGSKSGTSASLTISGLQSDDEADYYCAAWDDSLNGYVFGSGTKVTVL = 0.237

query: Consider the binder shown here: Ab_16 scFv-Fc (scFv, V domains shown) VH: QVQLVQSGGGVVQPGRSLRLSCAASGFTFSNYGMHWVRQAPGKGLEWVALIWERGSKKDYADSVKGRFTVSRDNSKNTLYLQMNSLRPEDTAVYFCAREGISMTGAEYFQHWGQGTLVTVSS VL: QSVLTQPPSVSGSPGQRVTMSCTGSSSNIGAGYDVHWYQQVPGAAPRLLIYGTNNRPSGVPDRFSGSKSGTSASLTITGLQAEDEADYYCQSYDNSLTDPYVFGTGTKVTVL What is its recorded Response?
result: 0.434

query: Give the measured Response of Ab_20 scFv-Fc (scFv, V domains shown) VH: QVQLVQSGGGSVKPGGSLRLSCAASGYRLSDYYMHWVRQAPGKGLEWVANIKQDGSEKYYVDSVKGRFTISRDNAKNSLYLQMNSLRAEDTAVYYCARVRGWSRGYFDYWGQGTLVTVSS VL: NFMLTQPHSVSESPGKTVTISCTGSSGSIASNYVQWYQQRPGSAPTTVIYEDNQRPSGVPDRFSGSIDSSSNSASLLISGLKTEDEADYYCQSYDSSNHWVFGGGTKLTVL .
result: 0.19
